Hey, just so you know, these numbers are from patent EP0262903A2.

# Tested on: Staphylococcus epidermidis EPI1
# ASSAY_EXPLANATION: MIC, standard agar-dilution assay
# Type: cell-based
# CONDITION: Staphylococcus epidermidis EPI1; agar dilution; read-out: MIC
MIC: recorded values
All answers are understood in µg/mL, so give the number only.

{"columns": ["MOLECULE", "MIC, µg/mL"],
 "data": [
  ["CCC1OC(=O)CC(O)C(C)C(OC2OC(C)C(O)C(N(C)C)C2O)C(CCOc2ccccc2)CC(C)C(=O)C=CC(C)=CC1COC1OC(C)C(OC(=O)C(N)c2ccccc2)C(OC)C1OC (stereo not shown)", 2]
]}

Could you tell me which MIC is on file for CCC1OC(=O)CC(O)C(C)C(OC2OC(C)C(O)C(N(C)C)C2O)C(CCOc2ccccc2)CC(C)C(=O)C=CC(C)=CC1COC1OC(C)C(OC(=O)CN2CCN(C)CC2)C(OC)C1OC (stereo not shown) ?
8

Then CCC(C)CN(CC)CCC1CC(C)C(=O)C=CC(C)=CC(COC2OC(C)C(OC(C)=O)C(OC)C2OC)C(CC)OC(=O)CC(O)C(C)C1OC1OC(C)C(O)C(N(C)C)C1O (stereo not shown) ?
8

Then CCC1OC(=O)CC(O)C(C)C(OC2OC(C)C(OC(C)=O)C(N(C)C)C2OC(C)=O)C(CCOc2ccccc2)CC(C)C(=O)C=CC(C)=CC1COC1OC(C)C(OC(C)=O)C(OC)C1OC (stereo not shown) ?
4

Then CCC1OC(=O)CC(O)C(C)C(OC2OC(C)C(O)C(N(C)C)C2O)C(CCOc2ccccc2)CC(C)C(=O)C=CC(C)=CC1COC1OC(C)C(OC(=O)CNCc2ccccc2)C(OC)C1OC (stereo not shown) ?
2

Then CCC1OC(=O)CC(O)C(C)C(OC2OC(C)C(O)C(N(C)C)C2O)C(CCN2CC(C)CC(C)C2)CC(C)C(=O)C=CC(C)=CC1COC1OC(C)C(OC(C)=O)C(OC)C1OC (stereo not shown) ?
1

Then CCC1OC(=O)CC(O)C(C)C(OC2OC(C)C(OC(C)=O)C(N(C)C)C2OC(C)=O)C(CCOc2ccccc2)CC(C)C(=O)C=CC(C)=CC1COC1OC(C)C(OC(=O)CCl)C(OC)C1OC (stereo not shown) ?
2

Then CCC1OC(=O)CC(O)C(C)C(OC2OC(C)C(O)C(N(C)C)C2O)C(CCOc2ccccc2)CC(C)C(=O)C=CC(C)=CC1COC1OC(C)C(OC(=O)C(NC(=O)OC(C)(C)C)c2ccccc2)C(OC)C1OC (stereo not shown) ?
16

Then CCC1OC(=O)CC(O)C(C)C(OC2OC(C)C(O)C(N(C)C)C2O)C(CCOc2ccccc2)CC(C)C(=O)C=CC(C)=CC1COC1OC(C)C(OC(C)=O)C(OC)C1OC (stereo not shown) ?
2

Then CCC1OC(=O)CC(O)C(C)C(OC2OC(C)C(O)C(N(C)C)C2O)C(CCOc2ccccc2)CC(C)C(=O)C=CC(C)=CC1COC1OC(C)C(OC(=O)CN2CCCC2)C(OC)C1OC (stereo not shown) ?
1
